All values here come from patent US12139492B2.

tested-on: BTK (Homo sapiens)
assay-procedure: BTK degradation, DC50 and Dmax of Table 1 (cell line not given)
Format: cell-based
Design: endogenous in cells
Field: Dmax. Provide a value for each of the compounds that follow.

Req: Recall the recorded Dmax for Nc1ncnc2c1c(-c1ccc(Oc3ccccc3)cc1)nn2C1CCN(C(=O)N2CCN(CCCC3CCN(c4ccc5c(c4)CN(C4CCC(=O)NC4=O)C5=O)CC3)CC2)CC1 (stereo not shown) with BTK (Homo sapiens) and state it.
Resp: > 75%

For each of the compounds below, state Dmax.
1. Nc1ncnc2c1c(-c1ccc(Oc3ccccc3)cc1)nn2[C@@H]1CCCN(C(=O)N2CCC(CC3CCN(c4ccc5c(c4)C(=O)N(C4CCC(=O)NC4=O)C5=O)CC3)CC2)C1 (stereo partly shown)
2. Nc1ncnc2c1c(-c1ccc(Oc3ccccc3)cc1)nn2[C@@H]1CCCN(C2CCN(C(=O)N3CCC(CC4CCN(c5ccc6c(c5)CN(C5CCC(=O)NC5=O)C6=O)CC4)CC3)CC2)C1 (stereo partly shown)
3. Nc1ncnc2c1c(-c1ccc(Oc3ccccc3)cc1)nn2[C@@H]1CCCN(C(=O)N2CCC(c3ccc4c(c3)C(=O)N(C3CCC(=O)NC3=O)C4=O)CC2)C1 (stereo partly shown)
4. Nc1ncnc2c1c(-c1ccc(Oc3ccccc3)cc1)nn2[C@@H]1CCCN(CC2CCN(CCCN3CCC(c4ccc5c(c4)CN(C4CCC(=O)NC4=O)C5=O)CC3)CC2)C1 (stereo partly shown)
5. Nc1ncnc2c1c(-c1ccc(Oc3ccccc3)cc1)nn2[C@@H]1CCCN(C2CCN(C(=O)N3CCC(CCN4CCN(c5ccc6c(c5)CN(C5CCC(=O)NC5=O)C6=O)CC4)CC3)CC2)C1 (stereo partly shown)
6. Nc1ncnc2c1c(-c1ccc(Oc3ccccc3)cc1)nn2[C@@H]1CCCN(C(=O)N2CCN(CC3CCN(c4ccc5c(c4)C(=O)N(C4CCC(=O)NC4=O)C5=O)CC3)CC2)C1 (stereo partly shown)
7. Nc1ncnc2c1c(-c1ccc(Oc3ccccc3)cc1)nn2C1CCN(C(=O)N2CCC(CCCN3CCC(c4ccc5c(c4)CN(C4CCC(=O)NC4=O)C5=O)CC3)CC2)CC1 (stereo not shown)

Resp:
["> 90%", "> 90%", "> 50%", "> 75%", "> 75%", "> 90%", "> 90%"]

For each of the compounds below, state Dmax.
1. Nc1ncnc2c1c(-c1ccc(Oc3ccccc3)cc1)nn2[C@@H]1CCCN(CC2CCN(CCCN3CCC(c4ccc5c(c4)C(=O)N(C4CCC(=O)NC4=O)C5=O)CC3)CC2)C1 (stereo partly shown)
2. Nc1ncnc2c1c(-c1ccc(Oc3ccccc3)cc1)nn2[C@@H]1CCCN(C(=O)N2CCC(CC3CCN(c4ccc5c(c4)CN(C4CCC(=O)NC4=O)C5=O)CC3)CC2)C1 (stereo partly shown)

Resp:
> 75%
> 90%

====

tested-on: BTK (Homo sapiens, UniProt Q06187)
Sequence (Q06187 whole entry): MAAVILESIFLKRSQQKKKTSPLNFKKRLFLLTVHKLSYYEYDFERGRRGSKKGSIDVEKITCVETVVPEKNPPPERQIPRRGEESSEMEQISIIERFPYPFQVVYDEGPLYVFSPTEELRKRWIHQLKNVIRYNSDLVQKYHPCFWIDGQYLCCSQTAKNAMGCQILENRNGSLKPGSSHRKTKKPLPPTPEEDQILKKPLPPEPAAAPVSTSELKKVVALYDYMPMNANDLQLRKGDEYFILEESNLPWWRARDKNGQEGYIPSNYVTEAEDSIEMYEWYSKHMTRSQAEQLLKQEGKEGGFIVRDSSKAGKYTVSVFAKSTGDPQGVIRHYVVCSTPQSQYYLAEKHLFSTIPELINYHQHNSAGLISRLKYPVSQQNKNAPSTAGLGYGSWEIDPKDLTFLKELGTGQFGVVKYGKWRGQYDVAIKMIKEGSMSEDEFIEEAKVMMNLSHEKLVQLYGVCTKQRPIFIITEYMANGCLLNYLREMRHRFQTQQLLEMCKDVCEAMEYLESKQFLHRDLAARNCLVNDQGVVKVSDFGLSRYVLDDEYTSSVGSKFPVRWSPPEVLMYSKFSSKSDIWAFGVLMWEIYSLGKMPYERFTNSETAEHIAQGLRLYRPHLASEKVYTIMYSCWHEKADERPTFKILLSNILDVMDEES
assay-procedure: Degradation of BTK protein in Namalwa cells (Western blot; DC50, Dmax)
condition-description: read-out: DC50 (BTK degradation); concentration giving 50% reduction of BTK expression level; cell line not given
readout-label: DC50

Solved cases below.
Req: Recall the recorded DC50 for Nc1ncnc2c1c(-c1ccc(Oc3ccccc3)cc1)nn2C1CCN(CC2CN(CC3CCN(c4ccc5c(c4)C(=O)N(C4CCC(=O)NC4=O)C5=O)CC3)C2)CC1 (centres unmarked) [Compound 439] with BTK (Homo sapiens, UniProt Q06187) and state it.
Resp: < 10 nM

Req: Recall the recorded DC50 for Nc1ncnc2c1c(-c1ccc(Oc3ccccc3)cc1)nn2C1CCN(CC2CCN(/C=C/C(=O)CN3CCN(c4ccc5c(c4)CN(C4CCC(=O)NC4=O)C5=O)CC3)CC2)CC1 (centres unmarked) [Compound 420] with BTK (Homo sapiens, UniProt Q06187) and state it.
Resp: < 10 nM

Req: Recall the recorded DC50 for Nc1ncnc2c1c(-c1ccc(Oc3ccccc3)cc1)nn2C1CCN(C(=O)C2CC(N3CCN(c4ccc5c(c4)C(=O)N(C4CCC(=O)NC4=O)C5=O)CC3)C2)CC1 (centres unmarked) [Compound 507] with BTK (Homo sapiens, UniProt Q06187) and state it.
Resp: < 10 nM

Req: Recall the recorded DC50 for NC(=O)c1c(-c2ccc(Oc3ccccc3)cc2)nn2c1NCC[C@H]2C1CCN(CC2CCN(C(=O)N3CCC(CN4CCC(c5ccc6c(c5)CN(C5CCC(=O)NC5=O)C6=O)CC4)CC3)CC2)CC1 (some centres unmarked) [Compound 416] with BTK (Homo sapiens, UniProt Q06187) and state it.
Resp: 10 to 50 nM

Req: Recall the recorded DC50 for Nc1ncnc2c1c(-c1ccc(Oc3ccccc3)cc1)nn2C1CCN(CCN2CC(N3CCN(c4ccc5c(c4)C(=O)N(C4CCC(=O)NC4=O)C5=O)CC3)C2)CC1 (centres unmarked) [Compound 463] with BTK (Homo sapiens, UniProt Q06187) and state it.
Resp: 10 to 50 nM

For each of the compounds below, state DC50.
1. Nc1ncnc2c1c(-c1ccc(Oc3ccccc3)cc1)nn2C1CCN(C2CCN(CC3CCN(c4ccc5c(c4)C(=O)N(C4CCC(=O)NC4=O)C5=O)CC3)C2)CC1 (centres unmarked) [Compound 449]
2. NC(=O)c1c(-c2ccc(Oc3ccccc3)cc2)nn2c1NCC[C@H]2C1CCN(CC2CCN(C(=O)N3CCN(C4CCN(c5ccc6c(c5)CN(C5CCC(=O)NC5=O)C6=O)CC4)CC3)CC2)CC1 (some centres unmarked) [Compound 402]
3. Nc1ncnc2c1c(-c1ccc(Oc3ccccc3)cc1)nn2C1CCN(CCCC#Cc2ccc(N3CCC(=O)NC3=O)cc2)CC1 [Compound 538]

Resp:
< 10 nM
10 to 50 nM
> 50 nM

For each of the compounds below, state DC50.
1. Nc1ncnc2c1c(-c1ccc(Oc3ccccc3)cc1)nn2C1CCN(C(=O)N2CC(N3CCN(c4ccc5c(c4)CN(C4CCC(=O)NC4=O)C5=O)CC3)C2)CC1 (centres unmarked) [Compound 478]
2. Nc1ncnc2c1c(-c1ccc(Oc3ccccc3)cc1)nn2C1CCN(C2CCN(CCN3CCC(c4ccc(N5CCC(=O)NC5=O)cc4)CC3)C2)CC1 (centres unmarked) [Compound 574]
3. Nc1ncnc2c1c(-c1ccc(Oc3ccccc3)cc1)nn2C1CCN(CCN2CCC(CN3CCC(c4ccc(N5CCC(=O)NC5=O)cc4)CC3)CC2)CC1 [Compound 553]

Resp:
1: < 10 nM; 2: 10 to 50 nM; 3: < 10 nM
